Task for the reader: assign each of the following compounds its reported TGI.
tested on: M14 melanoma; experiment: NCI tumour cell line growth inhibition, 48 h

// query Item "COc1ccc(Nc2nc3ccc(C(F)(F)F)cc3nc2-c2ccccc2)cc1OC" : provide TGI
// result > 100 µM

// query Item "Oc1ccc(-c2nc(-c3cccnc3)c(-c3ccc(Cl)cc3)[nH]2)cc1O" : provide TGI
// result 26.4 µM

// query Item "COc1ccc2c(CCN)c(C(=O)O)[nH]c2c1" : provide TGI
// result > 100 µM

// query Item OC(c1cc2ccccc2o1)c1cc2ccccc2s1 (stereo unspecified) : provide TGI
// result > 10 µM

// query Item "Cc1[nH]c2c(c1C)S(=O)(=O)c1cc3ccccc3nc1N2" : provide TGI
// result 62.5 µM

// query Item "S=C(Nc1ccc(Br)cc1)Nc1ccc(Br)cc1" : provide TGI
// result > 100 µM

// query Item "Cc1ccc(S(=O)(=O)NC(=O)C2C(=O)CC3(CCCCC3)CC2=O)cc1" : provide TGI
// result > 100 µM

// query Item Nc1nc(Cl)c(N)c(NCC2(CO)CC(OCc3ccccc3)C2)n1 (stereo unspecified) : provide TGI
// result > 100 µM

// query Item CN1CCCC2(CCCc3ccccc32)C1 (stereo unspecified) : provide TGI
// result > 100 µM

// query Item Clc1ccc(SC(/C=C/NNC2=NC(c3ccccc3)C(c3ccccc3)=NN2)c2ccccc2)cc1 (stereo unspecified) : provide TGI
// result 46 µM

// query Item COC(=O)C1C/C(=C/N(C)C)C(=S)N1 (stereo unspecified) : provide TGI
// result > 100 µM

----------
test system: PC-3 prostate; assay: NCI tumour cell line growth inhibition, 48 h
Where a SMILES comes first, the peptide text is derived from it. The star is where a group is joined. Boc = CC(C)(C)OC(=O)*; OSu = O=C1CCC(=O)N1O*
Task for the reader: assign each of the following molecules its reported TGI.

// query Item "O=C(/C=C/c1ccc(O)cc1)c1ccc2c(c1)OCO2" : provide TGI
// result 62.2 µM

// query Item "COc1ccc2nc3c([N+](=O)[O-])ccc4c3c(c2c1)NCCN4CCO" : provide TGI
// result 1.56 µM

// query Item "CN(C)CCCNC(=O)c1cc(NC(=O)c2cc(NC(=O)CCc3c[nH]c4ccccc34)cn2C)cn1C" : provide TGI
// result > 100 µM

// query Item "C=C(c1ccc2nc(NC(=O)OC)[nH]c2c1)c1cccs1" : provide TGI
// result > 100 µM

// query Item C=C(C)C(=O)O[C@H]1C[C@@]23O[C@@H]2CCC(=C[C@H]2OC(=O)C(=C)[C@H]12)COC3O (stereo partly drawn) : provide TGI
// result > 100 µM

// query Item O=C1CCC2(CC1CC(Sc1ccccc1)Sc1ccccc1)OCCO2 (stereo not drawn) : provide TGI
// result > 100 µM

// query Item "CCCC(=O)NC1=C(Cl)C(=O)c2ccccc2C1=O" : provide TGI
// result 13.8 µM

// query Item "CN[C@H]1C=C[C@@H]2/C=C(C)/C=C/[C@@H](C)[C@H]([C@H](C)[C@H](O)[C@@H](C)NC(C)=O)OC(=O)/C=C/C=C(C)\C=C\[C@]2(C)C1" : provide TGI
// result > 49 µM

// query Item "CNC(=O)c1ccc(N2CCN(Cc3ccc4nc(C)c(=O)[nH]c4c3F)CC2)c(F)n1" : provide TGI
// result > 100 µM

// query Item "CCCSc1ccc2[nH]c(N3C(=O)/C(=C/c4ccco4)N=C3c3ccccc3)cc2c1" : provide TGI
// result > 50 µM

// query Item "CN(CCn1cnc2c1c(=O)n(C)c(=O)n2C)C1CCCCC1" : provide TGI
// result > 100 µM

// query Item "Cn1cc(C2=C(c3cn(CCCCN)c4ccccc34)C(=O)NC2=O)c2ccccc21" : provide TGI
// result > 25 µM

// query Item CC(NC(=O)C(NC(=O)OC(C)(C)C)C(C)C)C(=O)NCC(=O)ON1C(=O)CCC1=O (stereo not drawn) (Boc-Val-Ala-Gly-OSu; configuration not given here) : provide TGI
// result > 100 µM

// query Item "CC(C)(C)C(=O)c1c(C(F)(F)F)n([O-])c2ccccc2[n+]1=O" : provide TGI
// result 2.38 µM

// query Item "C=C1C(=O)O[C@@H]2C[C@@H](C)[C@@H]3C=CC(=O)[C@@]3(C)[C@@H](OC(=O)CC(=O)O[C@H]3[C@@H]4C(=C)C(=O)O[C@@H]4C[C@@H](C)[C@@H]4C=CC(=O)[C@]43C)[C@H]12" : provide TGI
// result 0.436 µM

// query Item "CCOC(=O)c1ccc(Nc2c3c(nc4ccccc24)CCCC3)cc1" : provide TGI
// result > 100 µM

// query Item "Oc1ccc(-c2nc(-c3cccnc3)c(-c3ccc(Cl)cc3)[nH]2)cc1O" : provide TGI
// result 21.2 µM

// query Item "C[n+]1c(-c2ccc(/C=N/NC(=N)N/N=C/c3ccc(-c4cn5cc(Cl)ccc5[n+]4C)cc3)cc2)cn2cc(Cl)ccc21" : provide TGI
// result > 100 µM

----------
system: SK-OV-3 ovarian; assay: NCI tumour cell line growth inhibition, 48 h
Task for the reader: assign each of the following compounds its reported GI50.

// query Item "O=C(CO[N+](=O)[O-])Nc1ccc(C(=O)/C=C/c2ccc(Cl)cc2)cc1" : provide GI50
// result 10.1 µM

// query Item "CCOc1ccc2nc(SCc3nc4n(n3)S(=O)(=O)c3ccccc3N4C)sc2c1" : provide GI50
// result > 100 µM

// query Item "COc1ccc2c(c1)C(=O)c1c-2n(CCCN=[N+]=[N-])c(=O)c2cc(OC)c(OC)cc12" : provide GI50
// result 41.6 µM

// query Item CC[N+](CC)=c1sc2c(s1)C(c1ccc(Cl)cc1)Oc1ccc(Cl)cc1-2 (centres undefined) : provide GI50
// result 2.51 µM

----------
system: OVCAR-4 ovarian; assay: NCI tumour cell line growth inhibition, 48 h
Measure name: GI50

// query Item "O=c1c(Oc2ccc(F)cc2F)cc2cnc(NC3CCOCC3)nc2n1CCCO" : provide GI50
// result > 14.6 µM

// query Item "COc1ccc(C(=O)/C=C/c2ccc(C)cc2)cc1OC" : provide GI50
// result 12.2 µM

// query Item "O=S(=O)(Nc1ccccc1Cl)c1ccc(-c2cnc(C3CC3)o2)cc1" : provide GI50
// result 4.21 µM

// query Item "CO[C@H]1/C=C/O[C@@]2(C)Oc3c(C)c(O)c4c(c3C2=O)C(=O)C(/C=N/N(c2ccccc2)c2ccccc2)=C(NC(=O)/C(C)=C\C=C\[C@H](C)[C@H](O)[C@@H](C)[C@@H](O)[C@@H](C)[C@H](OC(C)=O)[C@@H]1C)C4=O" : provide GI50
// result 1.65 µM

----------
Task for the reader: assign each of the following compounds its reported TGI.
tested on: UACC-257 melanoma; test: NCI tumour cell line growth inhibition, 48 h

// query Item "COc1cc(C#Cc2ccc(=O)oc2C#Cc2ccccc2)cc(OC)c1OC" : provide TGI
// result 15.6 µM

// query Item "CCCSc1ccc2[nH]c(N3C(=O)/C(=C/c4ccco4)N=C3c3ccccc3)cc2c1" : provide TGI
// result > 50 µM

// query Item "[Cl-].[O-]/N=C(\c1ccccc1)c1ccccn1.[O-]/N=C(\c1ccccc1)c1ccccn1.[O-]/N=C(\c1ccccc1)c1ccccn1.[Sm+3]" : provide TGI
// result 73.6 µM

// query Item "O=C1c2ccccc2C(Br)(Br)c2ccccc21" : provide TGI
// result > 100 µM

// query Item "COc1ccc(-n2cnnc2-c2nsc3ccccc23)cc1" : provide TGI
// result > 100 µM

----------
tested on: HT29 colon; experiment: NCI tumour cell line growth inhibition, 48 h; in the data active = GI50 below about 0.43 µM; inactive = the rest
Your reply should match one of these outcome classes. true for active, false for inactive

// query Please indicate how the test categorized "[Cl][Hg][Cl]" .
// result false

// query Please indicate how the test categorized "OCc1ccc(-c2ccc(-c3ccc(CO)o3)[se]2)o1" .
// result false

// query Please indicate how the test categorized CCC[CH2][Sn]1([CH2]CCC)[O]CC(Cc2ccccc2)[O]1 (stereo not given) .
// result false

// query Please indicate how the test categorized CC[N+](CC)=c1sc2c(s1)C(c1ccc(Cl)cc1)Oc1ccc(Cl)cc1-2 (stereo not given) .
// result false

// query Please indicate how the test categorized "COC(=O)CCc1c[nH]c2ccc(N(CCCl)CCCl)cc12" .
// result false

// query Please indicate how the test categorized "Cn1cc(C2=C(c3cn(CCCCN)c4ccccc34)C(=O)NC2=O)c2ccccc21" .
// result false

// query Please indicate how the test categorized "COc1ccc(-c2cn[nH]c2-c2cc(OC)c3c(c2)OCO3)cc1" .
// result true

// query Please indicate how the test categorized "CCOC(=O)N1CCN(c2nc(Nc3cc(C)[nH]n3)c3ccccc3n2)CC1" .
// result false

// query Please indicate how the test categorized "CN(C)CCCNC(=O)c1cc(NC(=O)c2cc(NC(=O)CCc3c[nH]c4ccccc34)cn2C)cn1C" .
// result false

// query Please indicate how the test categorized "O=S(=O)(Nc1ccccc1Cl)c1ccc(-c2cnc(C3CC3)o2)cc1" .
// result true
